Hello, the source for this data is patent US20260242735A1, in case you need it.

The reader will find reported Mean % WT Binding values listed item by item below.
molecular target: human CD33 P19A (human, UniProt P20138 18-364); experiment: alanine scan, flow cytometry;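 further: HEK293-T cells transiently expressing single-residue alanine mutants of CD33 (alanine swapped to serine), antibody binding read by fluorescence in duplicate, background-subtracted, expressed relative to wild-type CD33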
Sequence (P20138 18-364 P19A limits assumed): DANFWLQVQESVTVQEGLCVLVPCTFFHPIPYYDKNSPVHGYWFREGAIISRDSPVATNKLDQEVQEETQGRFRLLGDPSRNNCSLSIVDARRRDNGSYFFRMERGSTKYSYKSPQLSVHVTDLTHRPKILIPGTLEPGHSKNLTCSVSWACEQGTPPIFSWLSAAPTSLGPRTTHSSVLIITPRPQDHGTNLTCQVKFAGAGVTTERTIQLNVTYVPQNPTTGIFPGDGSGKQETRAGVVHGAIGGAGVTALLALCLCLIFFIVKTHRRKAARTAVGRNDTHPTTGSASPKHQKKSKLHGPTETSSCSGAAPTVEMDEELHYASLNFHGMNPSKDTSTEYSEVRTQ
// note: answer is a bare numeric in % WT

Example entries and their recorded answers appear below.
Refmab #3 (antibody, V domains shown, Full-length format is human IgG1 Fc silent (PG-LALA); The alanine scan used IgG or Fab) VH: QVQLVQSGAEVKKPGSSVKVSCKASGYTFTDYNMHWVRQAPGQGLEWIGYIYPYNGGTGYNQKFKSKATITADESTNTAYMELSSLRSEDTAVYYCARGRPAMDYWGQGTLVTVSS VL: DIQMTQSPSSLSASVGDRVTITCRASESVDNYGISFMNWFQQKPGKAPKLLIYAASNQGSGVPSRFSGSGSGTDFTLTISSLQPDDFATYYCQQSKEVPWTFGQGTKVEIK :: 75.2
Refmab #1 (antibody, V domains shown, Full-length format is human IgG1 (Absolute Antibody Ab00283-10.0); The alanine scan used IgG or Fab; also called hP67.6) VH: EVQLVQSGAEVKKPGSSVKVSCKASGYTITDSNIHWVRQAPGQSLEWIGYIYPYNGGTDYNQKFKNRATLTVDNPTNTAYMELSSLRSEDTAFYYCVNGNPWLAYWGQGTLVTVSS VL: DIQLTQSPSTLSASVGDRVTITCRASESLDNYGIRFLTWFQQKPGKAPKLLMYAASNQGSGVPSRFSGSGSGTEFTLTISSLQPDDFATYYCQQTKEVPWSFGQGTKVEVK :: 80.8
Refmab #2 (antibody, V domains shown, Full-length format is human IgG1 Fc silent (PG-LALA); The alanine scan used IgG or Fab) VH: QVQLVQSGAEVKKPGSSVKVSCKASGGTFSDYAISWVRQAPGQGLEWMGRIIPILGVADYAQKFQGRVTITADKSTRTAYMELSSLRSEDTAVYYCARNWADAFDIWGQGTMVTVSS VL: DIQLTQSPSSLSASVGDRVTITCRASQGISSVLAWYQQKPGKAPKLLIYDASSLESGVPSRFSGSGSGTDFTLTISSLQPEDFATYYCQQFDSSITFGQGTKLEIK :: 111

Query binder follows.
Record Refmab #4 (antibody, V domains shown, Full-length format is human IgG1 Fc silent (PG-LALA); The alanine scan used IgG or Fab) VH: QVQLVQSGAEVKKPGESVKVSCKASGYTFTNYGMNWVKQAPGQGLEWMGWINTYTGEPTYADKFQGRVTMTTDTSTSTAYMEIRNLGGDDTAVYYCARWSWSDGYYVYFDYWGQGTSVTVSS VL: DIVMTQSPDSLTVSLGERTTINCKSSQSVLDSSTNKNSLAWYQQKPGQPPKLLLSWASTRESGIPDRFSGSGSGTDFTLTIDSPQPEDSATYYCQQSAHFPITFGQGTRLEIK . Reported Mean % WT Binding: 20.4
